Test system: HepG2
Test: cytotoxicity call (relative viability < 0.9)
Details: 10 µM
Screen size: about 39,000 compounds; about 3,300 (8.5%) were called active. Many of the other results were omitted from the sample, so actives are more common in it than they were.
Outcome field: choose from t = active, f = inactive

{"Molecule smiles": "C[C@@H]1CCCCO[C@@H](CN(C)C(=O)Nc2ccccc2)[C@@H](C)CN([C@H](C)CO)C(=O)c2cc(NS(=O)(=O)c3ccc(Cl)cc3)ccc2O1", "Assigned label": "f"}

Hi, sorry to bother you, what did the test record for CN1C(=O)c2cc(NS(C)(=O)=O)ccc2OC[C@@H]2O[C@H](CC(=O)N3CCOCC3)CC[C@@H]21 ?
f

Same read-out for COc1ccc(CN(C)C[C@H]2Oc3ccc(NS(C)(=O)=O)cc3CC(=O)N([C@H](C)CO)C[C@@H]2C)cc1 ?
f

Same read-out for CO[C@@H](CN(C)S(=O)(=O)c1cccc(Cl)c1)[C@H](C)CN([C@@H](C)CO)S(=O)(=O)c1ccc(Cl)cc1 ?
f

Same read-out for C[C@H](CO)N1C[C@H](C)[C@H](CN(C)C(=O)Nc2ccc(F)cc2)OCCCC[C@H](C)Oc2ccc(NC(=O)C3CCCCC3)cc2C1=O ?
f

Same read-out for CN(C)CCC=C1c2ccccc2Sc2ccc(Cl)cc21.Cl ?
t

Same read-out for C[C@H]1COC(=O)[C@@H](Cc2ccc(F)cc2)CCC=CC[C@@H](CC(=O)N[C@@H](CO)Cc2ccccc2)C(=O)N1 ?
f

Where do these numbers come from? They come from the antibiotic and cytotoxicity screens of Wong et al. (2023).
